Biological target: T1, Recombinant Human DLL4 (delta-like protein 4) (human, UniProt Q9NR61 27-524)
T1 construct: also called rHuman DLL4
Experiment: ELISA, plate-coated DLL4, Fab 12.5 nM
attribute measured: ELISA signal at 12.5 nM Fab
Number, no unit, nothing else.

[
  {
    "binder": "Fab VH1-46_IGHD6-6*01_IGHJ1*01 S102A/S103P/S104F/H111F (APFF) & L6_IGKJ1*01 S28N/S30D/S31H S52L (Fab, V domains shown, Fab made in E. coli: VH in plasmid A (CH1, His6 and Flag tags), VL in plasmid C (kappa CL); also called H:APFF & L:NDH S52L; APFF / NDH/S52L) VH: QVQLVQSGAEVKKPGASVKVSCKASGYTFTSYYMHWVRQAPGQGLEWMGIINPSGGSTSYAQKFQGRVTMTRDTSTSTVYMELSSLRSEDTAVYYCAREEYAPFSAEYFQFWGQGTLVTVSS VL: EIVLTQSPATLSLSPGERATLSCRASQNVDHYLAWYQQKPGQAPRLLIYDALNRATGIPARFSGSGSGTDFTLTISSLEPEDFAVYYCQQRSNWPPWTFGQGTKVEIKR",
    "ELISA signal at 12.5 nM Fab": 0.215
  }
]

Ask: Query (binder): Fab VH1-46_IGHD6-6*01_IGHJ1*01 S102A/S103P/S104F/H111F (APFF) & L6_IGKJ1*01 S28N/S30D/S31H N53H (Fab, V domains shown, Fab made in E. coli: VH in plasmid A (CH1, His6 and Flag tags), VL in plasmid C (kappa CL); also called H:APFF & L:NDH N53H; APFF / NDH/N53H) VH: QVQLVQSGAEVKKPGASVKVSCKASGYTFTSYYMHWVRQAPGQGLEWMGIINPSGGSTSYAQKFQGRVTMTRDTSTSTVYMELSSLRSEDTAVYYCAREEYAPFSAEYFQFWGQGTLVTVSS VL: EIVLTQSPATLSLSPGERATLSCRASQNVDHYLAWYQQKPGQAPRLLIYDASHRATGIPARFSGSGSGTDFTLTISSLEPEDFAVYYCQQRSNWPPWTFGQGTKVEIKR ; field requested: ELISA signal at 12.5 nM Fab
Result: 0.167
